Some compounds, each annotated with its measured IC50.
Target: BIKE (amino acids S38-E345) (K320A, K321A) (Homo sapiens, UniProt Q9NSY1, K320A/K321A)
Construct: against BIKE (amino acids S38-E345) (K320A, K321A); 6His (N, cleaved yes)
Sequence (Q9NSY1 38-345 K320A/K321A): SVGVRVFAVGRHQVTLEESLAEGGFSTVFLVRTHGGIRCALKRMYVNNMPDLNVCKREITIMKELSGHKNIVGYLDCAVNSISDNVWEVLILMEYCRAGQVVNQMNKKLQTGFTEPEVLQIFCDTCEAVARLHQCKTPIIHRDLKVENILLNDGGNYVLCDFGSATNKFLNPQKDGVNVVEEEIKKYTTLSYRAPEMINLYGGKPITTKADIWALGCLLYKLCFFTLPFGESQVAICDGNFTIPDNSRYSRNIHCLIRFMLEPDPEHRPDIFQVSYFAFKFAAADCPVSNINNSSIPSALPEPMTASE
Assay: BIKE pSENs assay
Format: biochemical
Conditions: class symbols; read-out: BIKE pSENs: IC50
measured-metric: IC50

- record-smiles: "CN1C[C@@H](OC(=O)N2CCN(c3nc4c(-c5cccnc5OC5CCCC5)cnn4cc3F)CC2)CC1=O"
  obs-value: "501 to 1500 nM"
- record-smiles: "CN1C[C@@H](OC(=O)N2CCN(c3ccn4ncc(-c5cc(F)cnc5OC5CC5)c4n3)CC2)CC1=O"
  obs-value: "151 to 500 nM"
- record-smiles: "C[C@@]1(OC(=O)N2CCN(c3ccn4ncc(-c5cccnc5OC5CC5)c4n3)CC2)CCN(CCO)C1"
  obs-value: "501 to 1500 nM"
- record-smiles: "C#C[C@@]1(OC(=O)N2CCN(c3ccn4ncc(-c5cccnc5OC5CC5)c4n3)CC2)CCNC1"
  obs-value: "1 to 50 nM"
- record-smiles: "Oc1ncccc1-c1cnn2ccc(N3CCNCC3)nc12"
  obs-value: "151 to 500 nM"

====

Target: AAK1 (Homo sapiens)
Assay: pAP2M1 cell-based assay (in-cell Western)
pIC50: −log10 of the molar value.
measured-metric: pIC50

- record-smiles: "c1cc2nc(N3CCNCC3)ccn2n1"
  measured-metric: "pIC50"
  obs-value: "< 5.82"
- record-smiles: "CC(C)Oc1ncccc1-c1cnn2ccc(N3CCN(C(=O)OC4(C)COC4)CC3)nc12"
  measured-metric: "pIC50"
  obs-value: "5.82 to 6.30"
- record-smiles: "[2H]C1([2H])N(C(=O)O[C@H]2CC(=O)N(C)C2)C([2H])([2H])C([2H])([2H])N(c2ccn3ncc(-c4cccnc4OC4CC4)c3n2)C1([2H])[2H]"
  measured-metric: "pIC50"
  obs-value: "5.82 to 6.30"
- record-smiles: "[2H]C1([2H])N(C(=O)O[C@@H]2CNC(=O)C2)C([2H])([2H])C([2H])([2H])N(c2ccn3ncc(-c4cccnc4OC4CC4)c3n2)C1([2H])[2H]"
  measured-metric: "pIC50"
  obs-value: "5.82 to 6.30"
- record-smiles: "Brc1cnn2ccc(N3CCNCC3)nc12"
  measured-metric: "pIC50"
  obs-value: "< 5.82"

====

# IC50 values compiled below
Target: AAK1 (amino acids T27-A365) (Homo sapiens, UniProt Q2M2I8)
Construct: against AAK1 (amino acids T27-A365); 6His (N, cleaved yes)
Sequence (Q2M2I8 27-365): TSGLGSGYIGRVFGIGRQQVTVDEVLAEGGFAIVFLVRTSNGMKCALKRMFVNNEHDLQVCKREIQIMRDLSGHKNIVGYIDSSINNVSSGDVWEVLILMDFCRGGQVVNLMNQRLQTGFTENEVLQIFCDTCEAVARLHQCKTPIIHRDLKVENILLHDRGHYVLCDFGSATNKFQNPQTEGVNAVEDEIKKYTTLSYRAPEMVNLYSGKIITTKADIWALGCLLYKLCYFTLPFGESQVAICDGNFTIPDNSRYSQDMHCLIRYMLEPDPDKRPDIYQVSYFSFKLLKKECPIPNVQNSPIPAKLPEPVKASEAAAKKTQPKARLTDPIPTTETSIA
Assay: AAK1 pSENs assay
Type: biochemical
Details: class symbols; read-out: AAK1 pSENs: EIC50
measured-metric: IC50

- compound: "CN1C[C@@H](OC(=O)N2CCN(c3ccn4ncc(Cl)c4n3)CC2)CC1=O"
  measured-metric: "IC50"
  obs-value: "> 1500 nM"
- compound: "N#C[C@@H]1CN(c2ccn3ncc(-c4cccnc4OC4CC4)c3n2)CCN1C(=O)O[C@@H]1CNC(=O)C1"
  measured-metric: "IC50"
  obs-value: "151 to 500 nM"
- compound: "CN(CCN1C[C@@H](OC(=O)N2CCN(c3ccn4ncc(-c5cccnc5OC5CC5)c4n3)CC2)CC1=O)C(=O)OC(C)(C)C"
  measured-metric: "IC50"
  obs-value: "51 to 150 nM"
- compound: "CC(C)Oc1ncccc1-c1cnn2ccc(N3CCN(C(=O)OC4(C)CCNC4)CC3)nc12 (stereo not shown)"
  measured-metric: "IC50"
  obs-value: "1 to 50 nM"
- compound: "O=C(O[C@@H]1CC(=O)N(C2CCNCC2)C1)N1CCN(c2ccn3ncc(-c4cccnc4OC4CC4)c3n2)CC1"
  measured-metric: "IC50"
  obs-value: "> 1500 nM"
- compound: "CC(C)(C)OC(=O)N1CCC(N2C[C@H](OC(=O)N3CCN(c4ccn5ncc(-c6cccnc6OC6CC6)c5n4)CC3)CC2=O)CC1"
  measured-metric: "IC50"
  obs-value: "151 to 500 nM"
- compound: "COC(=O)N1CC(Oc2ncccc2-c2cnn3ccc(N4CCN(C(=O)O[C@@H]5CC(=O)N(CCO)C5)CC4)nc23)C1"
  measured-metric: "IC50"
  obs-value: "151 to 500 nM"
